- Test system: 596521-263-R-J1-PDC complex spheroid growth;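 note: spheroids exposed to compounds for 7 days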
- Test Method Notes: Anticancer human tumor 596521-263-R-J1-PDC patient-derived soft tissue sarcoma cell line growth inhibition [Asc]
- Assay Context: curve of compound
- Description: Multicellular complex tumor spheroid response to apoptosis pathway targeting inhibitors Alrizomadlin, Pelcitoclax, and Dasminapant in combination with a variety of drugs and investigational agents in selected tumor cell lines […] Compounds. […] If the clinical Cmax for an agent had not been determined, the highest concentration tested was 10 microM. […]
Recorded IC50 values for a group of molecules are listed next.

Observe how each entry below is paired with its result.
CCN1CCN(Cc2ccc(Nc3ncc(F)c(-c4cc(F)c5nc(C)n(C(C)C)c5c4)n3)nc2)CC1: > 1000 nM
CCN1C(C(=O)NC23CCC(C(=O)O)(CC2)CC3)C(c2cccc(Cl)c2F)C2(C(=O)Nc3cc(Cl)ccc32)C12CCCCC2 (centres undefined): > 3000 nM
Cc1nc(N2CCC3(CC2)COC(C)C3N)c(CO)nc1Sc1ccnc(N)c1Cl (centres undefined): > 3000 nM

For Cn1ncnc1[C@H]1c2n[nH]c(=O)c3cc(F)cc(c23)N[C@@H]1c1ccc(F)cc1 , what is its reported IC50?
> 100 nM
